ASSAY_PROCEDURE: Half-lives of hydrolysis of the prodrugs in human serum
MEASUREMENT_CONDITIONS: Half-life of hydrolysis, Serum
READOUT_KIND: half-life (min)

Recorded results for 8 compounds are shown here.
{"columns": ["COMPOUND", "MEASUREMENT_UNIT", "half-life"],
 "data": [
  ["COCCOCCOCC(=O)OCC(COC(=O)COCCOCCOC)OCn1cnc2c(=O)[nH]c(N)nc21", "min", 37],
  ["CN(C)CCOCCOC(=O)COCC(=O)O[C@H](CN1CC[C@H]2CCCC[C@H]2[C@H]1C(=O)NC(C)(C)C)[C@H](Cc1ccccc1)NC(=O)[C@H](CC(N)=O)NC(=O)c1ccc2ccccc2n1", "min", 1500],
  ["Nc1ccn(C2CCC(COC(=O)COCCOCCO)O2)c(=O)n1 (stereo not shown)", "min", 10],
  ["COCCOCC(=O)OCn1cc(F)c(=O)[nH]c1=O", "min", 6],
  ["CC(C)OC(=O)COCC(=O)OCC1CCC(n2ccc(N)nc2=O)O1 (stereo not shown)", "min", 1.3],
  ["COC(=O)COCC(=O)O[C@H](CN1CC[C@H]2CCCC[C@H]2[C@H]1C(=O)NC(C)(C)C)[C@H](Cc1ccccc1)NC(=O)[C@H](CC(N)=O)NC(=O)c1ccc2ccccc2n1", "min", 270],
  ["COCCOCCOCC(=O)OCC1CCC(n2cnc3c(=O)[nH]cnc32)O1 (stereo not shown)", "min", 1.2],
  ["CC(C)(C)OC(=O)COCC(=O)Nc1ccn(C2CCC(CO)O2)c(=O)n1 (stereo not shown)", "min", 300]
]}

(I) O=C(COCCOCCO)OCC1CCC(n2cnc3c(=O)[nH]cnc32)O1 (stereo not shown)
(II) Nc1nc2c(ncn2COCCOC(=O)COCC(=O)O)c(=O)[nH]1
**Query** Select the item with the higher value of half-life from the options I and II listed. Label of pick, please.
**Result** II
